# Lookup of reported logP keyed by entry
Respond numerically, and do not add a unit to the figure.

Worked examples follow.
[
  {
    "compound": "Oc1cc(O)c2c(c1)O[C@H](c1ccc(O)c(O)c1)[C@@H](O)C2",
    "measurement_type": "logP",
    "val": 0.51
  },
  {
    "compound": "O=c1cc(-c2ccc(O)c(O)c2)oc2cc(O)cc(O)c12",
    "measurement_type": "logP",
    "val": 2.53
  },
  {
    "compound": "COc1ccc(-c2cc(=O)c3c(O)cc(O[C@@H]4O[C@H](CO[C@@H]5O[C@@H](C)[C@H](O)[C@@H](O)[C@H]5O)[C@@H](O)[C@H](O)[C@H]4O)cc3o2)cc1O",
    "measurement_type": "logP",
    "val": 0.14
  }
]

QUERY: Name the reported logP value associated with the compound `O=c1cc(-c2ccccc2)oc2cccc(O)c12`
RESULT: 4.3

QUERY: Data request, read-out logP, for `O=c1cc(-c2ccc(O)c(O)c2)oc2cccc(O)c12`
RESULT: 3.31

QUERY: Given the entry `O=C1c2c(O)cc(O)cc2O[C@H](c2ccc(O)c(O)c2)[C@H]1O` , report its measured logP.
RESULT: 0.95

QUERY: Give its logP value. Item: `COc1ccc(-c2cc(=O)c3c(O)cc(O)cc3o2)cc1O`
RESULT: 3.1

QUERY: Consider the compound O=C1CC(c2ccc(O)c(O)c2)Oc2cc(O)cc(O)c21 (configuration not stated) and give its measured logP.
RESULT: 2.02

QUERY: # input compound: `C[C@@H]1O[C@@H](O[C@H]2[C@H](Oc3cc(O)c4c(c3)O[C@H](c3ccc(O)cc3)CC4=O)O[C@H](CO)[C@@H](O)[C@@H]2O)[C@H](O)[C@H](O)[C@H]1O` ; wanted: its logP
RESULT: -0.44

QUERY: Consider the compound O=C1CC(c2cccc(O)c2)Oc2cc(O)cc(O)c21 (configuration not stated) and give its measured logP.
RESULT: 2.61

QUERY: Quick one: logP of O=C1CC(c2ccc(O)c(O)c2)Oc2cccc(O)c21 (configuration not stated) ?
RESULT: 2.81

QUERY: Endpoint output: logP of `COc1ccc([C@@H]2CC(=O)c3c(O)cc(O)cc3O2)cc1O` . Value?
RESULT: 2.6

QUERY: Name the recorded logP for `O=c1cc(-c2ccccc2)oc2cc(O)cc(O)c12` .
RESULT: 3.52

QUERY: Field request: logP | item: `O=C1C[C@@H](c2ccc(O)c(O)c2)Oc2cc(O)ccc21`
RESULT: 1.94

QUERY: I am curious: what logP value has been reported for `O=c1cc(-c2ccc(O)cc2)oc2cc(O)cc(O)c12` ?
RESULT: 3.02

QUERY: Please look up its logP: `O=C1C[C@@H](c2ccc(O)cc2)Oc2cc(O)cc(O)c21`
RESULT: 2.52

QUERY: Any idea what its logP is? The compound is O=C1c2ccc(O)cc2OC(c2ccc(O)c(O)c2)C1O (configuration not stated)
RESULT: 0.87
